Target: Recombinant Human CHO Stromelysin (MMP-3) (Homo sapiens, UniProt P08254)
Sequence (P08254 100-477): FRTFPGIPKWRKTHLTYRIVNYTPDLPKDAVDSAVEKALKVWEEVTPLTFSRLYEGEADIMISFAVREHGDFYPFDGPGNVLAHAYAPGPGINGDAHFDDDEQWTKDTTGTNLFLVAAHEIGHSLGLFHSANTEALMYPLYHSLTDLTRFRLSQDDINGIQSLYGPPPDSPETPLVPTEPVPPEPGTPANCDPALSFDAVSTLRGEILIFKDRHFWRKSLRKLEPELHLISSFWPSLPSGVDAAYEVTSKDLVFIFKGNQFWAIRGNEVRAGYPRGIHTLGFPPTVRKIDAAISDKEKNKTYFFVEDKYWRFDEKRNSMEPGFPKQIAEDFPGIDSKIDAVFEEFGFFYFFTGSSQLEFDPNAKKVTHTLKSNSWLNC
Conditions: P218 6 μM, pH 6.5, 25 min, 37° C.
From the text: The reaction was stopped by addition of soybean trypsin inhibitor (SBTI; 5:1 w/w to trypsin concentration). MMP Microfluorometric Profiling Assay.
pIC50: −log10 of the molar value.
The threshold is inclusive: pIC50 of exactly 6 counts as 1; values below receive -1.

Sample answers from the record:
# Molecule, Study System, Qualitative Label
measured = [
    ("O=C(C[C@H](CCCc1ccccc1)C(=O)O)c1ccc(-c2ccc(Cl)cc2)cc1", "Recombinant Human CHO Stromelysin (MMP-3) (Homo sapiens, UniProt P08254)", 1),
    ("O=C(O)[C@@H](CCCc1ccccc1)CC(O)c1ccc(-c2ccc(Cl)cc2)cc1 (single isomer, unassigned) [drawing 38]", "Recombinant Human CHO Stromelysin (MMP-3) (Homo sapiens, UniProt P08254)", 1),
]

Req: Given the entry `O=C(C[C@H](CSc1ccc(O)cc1)C(=O)O)c1ccc(-c2ccc(Cl)cc2)cc1` , answer whether its pIC50 meets or surpasses 6.
Resp: 1

Req: Repeat for the following molecule: O=C(O)[C@@H](CSc1ccccc1)C[C@H](O)c1ccc(-c2ccc(Cl)cc2)cc1 [drawing 36]
Resp: -1

Req: Same again, this time with O=C(O)[C@@H](CSc1ccccc1)C[C@@H](O)c1ccc(-c2ccc(Cl)cc2)cc1 [drawing 35]
Resp: 1

---

target: Human Recombinant gelatinase A (MMP-2) (Homo sapiens); settings: P218 6 μM, pH 6.5, 25 min, 37° C.
Sequence (P08253 110-660): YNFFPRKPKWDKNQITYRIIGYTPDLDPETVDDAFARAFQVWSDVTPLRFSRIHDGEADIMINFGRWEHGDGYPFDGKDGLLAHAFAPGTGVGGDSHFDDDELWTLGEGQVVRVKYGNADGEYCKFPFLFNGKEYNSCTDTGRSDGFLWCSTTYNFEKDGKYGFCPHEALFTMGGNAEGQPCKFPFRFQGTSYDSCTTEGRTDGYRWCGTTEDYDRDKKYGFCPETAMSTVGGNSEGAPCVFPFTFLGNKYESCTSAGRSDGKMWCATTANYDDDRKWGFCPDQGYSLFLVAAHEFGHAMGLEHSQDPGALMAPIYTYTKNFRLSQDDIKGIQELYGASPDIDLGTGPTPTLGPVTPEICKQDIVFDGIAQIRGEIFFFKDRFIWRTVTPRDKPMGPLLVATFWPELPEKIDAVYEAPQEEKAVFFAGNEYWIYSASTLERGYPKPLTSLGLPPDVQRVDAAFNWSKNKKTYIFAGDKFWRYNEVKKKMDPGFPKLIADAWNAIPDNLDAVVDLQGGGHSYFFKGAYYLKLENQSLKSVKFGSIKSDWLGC
Result Type: log10(IC50) (log10 of the value in nM)
Kindly note that the scale is log10 and the underlying IC50 is in nM.

Req: Field: log10(IC50) (Human Recombinant gelatinase A (MMP-2) (Homo sapiens)). Entry: `O=C(C[C@H](CSc1ccc(O)cc1)C(=O)O)c1ccc(-c2ccc(Cl)cc2)cc1`
Resp: 0.48

Req: Queued: O=C(O)[C@@H](CSc1ccccc1)C[C@H](O)c1ccc(-c2ccc(Cl)cc2)cc1 [drawing 36]
Resp: 1.79

Req: Subsequent entry: `O=C(C[C@H](CCCc1ccccc1)C(=O)O)c1ccc(-c2ccc(Cl)cc2)cc1`
Resp: 1.53

Req: Would you kindly repeat that for `O=C(C[C@H](CSc1ccccc1)C(=O)O)c1ccc(-c2ccc(Cl)cc2)cc1` ?
Resp: 1.30

Req: Ok, now O=C(O)[C@@H](CSc1ccccc1)C[C@@H](O)c1ccc(-c2ccc(Cl)cc2)cc1 [drawing 35]
Resp: 0.45

Req: Now the compound O=C(O)[C@@H](CCCc1ccccc1)CC(O)c1ccc(-c2ccc(Cl)cc2)cc1 (single isomer, unassigned) [drawing 38]
Resp: 0.97

Req: Can you handle O=C(O)[C@@H](CCCc1ccccc1)CC(O)c1ccc(-c2ccc(Cl)cc2)cc1 (single isomer, unassigned) [drawing 39] next?
Resp: 1.66

---

molecular target: Human recombinant gelatinase B (MMP-9) (Homo sapiens); details: P218 6 μM, pH 6.5, 25 min, 37° C.
Result Type: IC50

Req: Record O=C(O)[C@@H](CCCc1ccccc1)CC(O)c1ccc(-c2ccc(Cl)cc2)cc1 (single isomer, unassigned) [drawing 39] : what is its IC50 with Human recombinant gelatinase B (MMP-9) (Homo sapiens)?
Resp: 369 nM

Req: Then this compound: `O=C(C[C@H](CSc1ccc(O)cc1)C(=O)O)c1ccc(-c2ccc(Cl)cc2)cc1`
Resp: 115 nM

Req: And O=C(O)[C@@H](CSc1ccccc1)C[C@H](O)c1ccc(-c2ccc(Cl)cc2)cc1 [drawing 36] ?
Resp: 890 nM

---

biological target: Human recombinant gelatinase B (MMP-9) (Homo sapiens, UniProt P14780); settings: P218 6 μM, pH 6.5, 25 min, 37° C.
Sequence (P14780 107-707 limits assumed): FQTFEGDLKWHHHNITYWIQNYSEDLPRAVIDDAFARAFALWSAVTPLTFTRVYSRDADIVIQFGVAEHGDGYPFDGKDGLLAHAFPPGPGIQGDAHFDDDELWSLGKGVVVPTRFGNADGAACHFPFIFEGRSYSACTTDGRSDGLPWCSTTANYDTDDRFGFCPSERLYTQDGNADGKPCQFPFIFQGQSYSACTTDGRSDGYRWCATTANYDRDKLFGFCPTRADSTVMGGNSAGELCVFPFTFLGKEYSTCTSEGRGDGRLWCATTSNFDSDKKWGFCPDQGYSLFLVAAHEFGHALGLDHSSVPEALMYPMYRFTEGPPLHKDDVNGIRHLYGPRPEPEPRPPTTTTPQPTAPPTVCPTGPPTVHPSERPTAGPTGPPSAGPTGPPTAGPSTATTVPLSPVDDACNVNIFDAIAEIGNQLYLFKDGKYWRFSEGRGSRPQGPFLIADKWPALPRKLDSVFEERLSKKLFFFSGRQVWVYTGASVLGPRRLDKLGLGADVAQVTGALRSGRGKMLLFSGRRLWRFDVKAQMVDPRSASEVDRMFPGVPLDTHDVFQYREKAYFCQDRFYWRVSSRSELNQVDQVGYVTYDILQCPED
Result Type: pIC50
Convention used: pIC50 is expressed as -log10 of the molar concentration.

Worked cases, pIC50 given:
# Compound, pIC50
rows = [
    ("O=C(C[C@H](CCCc1ccccc1)C(=O)O)c1ccc(-c2ccc(Cl)cc2)cc1", 6.68),
    ("O=C(C[C@H](CSc1ccccc1)C(=O)O)c1ccc(-c2ccc(Cl)cc2)cc1", 6.31),
    ("O=C(O)[C@@H](CCCc1ccccc1)CC(O)c1ccc(-c2ccc(Cl)cc2)cc1 (single isomer, unassigned) [drawing 38]", 7.09),
]

Now consider a different compound.
Req: For the compound shown here, O=C(O)[C@@H](CSc1ccccc1)C[C@@H](O)c1ccc(-c2ccc(Cl)cc2)cc1 [drawing 35] , give the reported pIC50.
Resp: 7.24
